// provenance: PubChem BioAssay (Tox21)

- experimental_target: Beta-2 adrenergic receptor (Homo sapiens) (UniProt P07550)
- Sequence (P07550 whole entry, looked up): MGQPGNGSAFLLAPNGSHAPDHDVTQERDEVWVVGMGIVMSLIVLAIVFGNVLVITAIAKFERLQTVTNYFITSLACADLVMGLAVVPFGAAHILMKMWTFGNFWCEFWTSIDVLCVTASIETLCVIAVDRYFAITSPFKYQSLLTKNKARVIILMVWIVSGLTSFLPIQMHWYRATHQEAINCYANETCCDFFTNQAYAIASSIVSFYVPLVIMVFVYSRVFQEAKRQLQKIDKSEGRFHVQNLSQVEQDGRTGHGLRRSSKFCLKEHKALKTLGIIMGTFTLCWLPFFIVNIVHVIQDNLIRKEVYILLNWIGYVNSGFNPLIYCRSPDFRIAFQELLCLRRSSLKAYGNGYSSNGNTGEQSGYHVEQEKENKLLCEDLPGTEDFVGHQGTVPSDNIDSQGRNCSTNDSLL
- run_description: Adrenergic beta2 receptor (ADRB2) small molecule antagonists, cell-based qHTS assay (AID 1963592); also: % is scaled to controls: 0 for no effect and ±100 for the full control effect; nearly all actives have a fitted effect of over 50% in size
- measurement_parameters: CHO-ADRB2 cells, isoproterenol-stimulated cAMP HTRF ratio, 0.5 h; series mostly up to 92.4 µM
Records with an inconclusive call do not appear. Calls of active or inactive are those of the source. Calls follow the shape of the full dose curve.
parameter_measured: activity change, negative = inhibition

Would you please look over these solved cases?
INSERT INTO assay_data (compound, parameter_measured, result) VALUES
  ('C/C(=N\O)c1ccc(OCC(=O)N2CCCCC2)cc1', 'activity change, negative = inhibition', 'inactive'),
  ('NCC(=O)CCC(=O)O', 'activity change, negative = inhibition', 'inactive'),
  ('C[C@H](N)[C@H](O)c1cccc(O)c1', 'activity change, negative = inhibition', 'inactive'),
  ('CN1C(=O)CC(c2ccccc2)C1=O (stereo not drawn)', 'activity change, negative = inhibition', 'inactive'),
  ('C#CC(C)(CC)OC(=O)c1ccccc1C(=O)O (stereo not drawn)', 'activity change, negative = inhibition', 'inactive');

Provide activity change, negative = inhibition values for the following items, in order.
1. CCOC(=O)C1=NN(c2ccc(Cl)cc2Cl)C(C)(C(=O)OCC)C1 (stereo not drawn)
2. O=C(c1ccccc1)c1ccc2n1CCC2C(=O)O (stereo not drawn)
3. O=C1CCCCCCCCCCCCCC1

Result:
1. inactive
2. inactive
3. inactive

----------
- run_description: Nuclear factor erythroid 2-related factor 2/antioxidant responsive element (Nrf2/ARE) small molecule agonists: qHTS cell viability counter screen in human keratinocytes (AID 1919968); also: % is scaled to controls: 0 for no effect and ±100 for the full control effect; nearly all actives have a fitted effect of over 55% in size
- measurement_parameters: KeratinoSens HaCaT ARE cells viability, CellTiter-Fluor, 24 h; series mostly up to 92.4 µM
Inconclusive results are not listed. Active and inactive are the calls of the source. The call rests on the fitted dose curve; in most records, active means well fitted cell-killing curve with a large enough effect in the repeat runs; inconclusive means weak or mixed curves, or effect the other way; inactive means flat fitted curve, though single readings scatter.
parameter_measured: activity change, negative = cytotoxicity

Below are worked cases with known answers.
INSERT INTO assay_data (compound, result) VALUES
  ('CCCCCCCCCCCCCC=O', '-1.13% [at 8.39 µM] (inactive)'),
  ('CN1CCN(CC(=O)N2c3ccccc3C(=O)Nc3cccnc32)CC1', '0.0434% [at 8.39 µM] (inactive)'),
  ('O=C=NCc1cccc(CN=C=O)c1', '3.98% [at 19 µM] (inactive)'),
  ('C[N+]1(CC2COC(c3ccccc3)(c3ccccc3)O2)CCCCC1 (configuration not stated)', '-0.244% [at 19 µM] (inactive)'),
  ('O=c1[nH]c(=O)c2[nH]c(=O)[nH]c2[nH]1', '13.3% [at 8.39 µM] (inactive)');

Provide activity change, negative = cytotoxicity for all items below, preserving their order.
1. NCCCNCCSP(=O)(O)O
2. CCCCCCCCCCOc1cc2c(=O)c(C(=O)OCC)c[nH]c2cc1OCC

Result:
1: -4.44% [at 8.39 µM] (inactive); 2: -4.24% [at 8.39 µM] (inactive)

----------
- run_description: Nuclear factor erythroid 2-related factor 2/antioxidant responsive element (Nrf2/ARE) small molecule agonists: qHTS cell viability counter screen in human keratinocytes (AID 1919968); also: % is scaled to controls: 0 for no effect and ±100 for the full control effect; nearly all actives have a fitted effect of over 55% in size
- measurement_parameters: KeratinoSens HaCaT ARE cells viability, CellTiter-Fluor, 24 h; series mostly up to 92.4 µM
- Excerpt: U.S. Tox21 Program National Center for Advancing Translational Sciences [NCATS] Division of Preclinical Innovation [DPI] U.S. Environmental Protection Agency [EPA] National Institutes of Environmental Health Sciences [NIEHS] National Toxicology Program [NTP] U.S. Food and Drug Administration [FDA] […] The activation of the report gene under culture conditions can be detected by ONE-Glo Luciferase Assay System (Promega, Madison, WI). […]
Records with an inconclusive call do not appear. Calls of active or inactive are those of the source. Calls follow the shape of the dose curve; as a rule, active = well fitted cell-killing curve with a large enough effect in the repeat runs; inconclusive = weak or mixed curves, or effect the other way; inactive = flat fitted curve, though single readings scatter.
Respond with a class label; see active, inactive

The examples below pair each entry with its known result.
INSERT INTO results (molecule, label_class) VALUES
  ('Cc1ccnc(NS(=O)(=O)c2ccc(N)cc2)n1', 'inactive'),
  ('C1COC(NC(C2CC2)C2CC2)=N1', 'inactive'),
  ('CCCCCC(=O)OCCc1ccccc1', 'inactive'),
  ('O=CN1CCCCC1', 'inactive'),
  ('Oc1cc(O)c(Cl)cc1Cl', 'inactive');

Q: Test call, this molecule: O=C1CCCN1CCO
Result: inactive

Q: Note, next up: CC(C)OC(=O)C(C)N(C(=O)c1ccccc1)c1ccc(F)c(Cl)c1 (stereo not drawn)
Result: inactive

Q: OCCC(O)CO (stereo not drawn) , same question.
Result: inactive

----------
- run_description: Nuclear factor erythroid 2-related factor 2/antioxidant responsive element (Nrf2/ARE) small molecule agonists: qHTS cell viability counter screen in human keratinocytes (AID 1919968); also: % is scaled to controls: 0 for no effect and ±100 for the full control effect; nearly all actives have a fitted effect of over 55% in size
- measurement_parameters: KeratinoSens HaCaT ARE cells viability, CellTiter-Fluor, 24 h; series mostly up to 92.4 µM
Results filed as inconclusive are left out. Activity calls are given as the source filed them. The call rests on the fitted dose curve; in most records, active means well fitted cell-killing curve with a large enough effect in the repeat runs; inconclusive means weak or mixed curves, or effect the other way; inactive means flat fitted curve, though single readings scatter.
Thanks in advance; please answer with one of these: label 1 for active, label 0 for inactive

INSERT INTO measurements (compound, label_class) VALUES
  ('CC1(c2ccccc2)OC(C(=O)O)=CC1=O (configuration not stated)', 'label 0');

Q: // param item: NC(=O)C1(N2CCCCC2)CCN(CCCC(=O)c2ccc(F)cc2)CC1 ; yields the recorded call
Result: label 0

Q: Record: CN1CCN(N)CC1
Result: label 0

Q: Proceed to COc1cc(N)c(Cl)cc1C(=O)NC1CCN(CCCOc2ccc(F)cc2)CC1OC (configuration not stated)
Result: label 0

Q: Same for O=C(CCCN1CCN(c2ccccn2)CC1)c1ccc(F)cc1
Result: label 0

Q: Similarly, NC(=O)NC(=O)Cc1ccccc1 ?
Result: label 0

Q: Now give it for Cc1cnc(C)c(C)n1 too.
Result: label 0

Q: Next record, please: CCCCCCCCCCOS(=O)(=O)O
Result: label 0

Q: Thanks! And C=C(C)C(=O)OCCN(CC)CC ?
Result: label 0

Q: Next up: N=c1ccn2c(n1)O[C@H]1[C@H](O)[C@@H](CO)O[C@H]12
Result: label 0

Q: Entry O=C(CCCCC(=O)Nc1c(I)cc(I)c(C(=O)O)c1I)Nc1c(I)cc(I)c(C(=O)O)c1I please
Result: label 0

Q: Entry to check: NC(=O)NS(=O)(=O)c1ccc(N)cc1
Result: label 0

Q: Similarly, C/C(=N\[Si](C)(C)C)O[Si](C)(C)C ?
Result: label 0

Q: What about OCCN1CN(CCO)CN(CCO)C1 ?
Result: label 0

----------
- experimental_target: KiSS-1 receptor (Homo sapiens)
- run_description: Human kisspeptin (KISS1R) small molecule agonists, calcium flux assay in KISS1R-HEK293 cells (AID 1920064); also: % is scaled to controls: 0 for no effect and ±100 for the full control effect
- measurement_parameters: KISS1R-HEK293, calcium flux fluorescence, agonist; series mostly up to 76.8 µM
The source made the active and inactive calls. Calls come from the whole dose curve; as a rule, active = well fitted activation curve with a large enough effect in the repeat runs; inconclusive = weak or mixed curves; inactive = flat fitted curve, though single readings scatter.
parameter_measured: activation

Before answering, review these 5 worked examples.
INSERT INTO assay_data (molecule, parameter_measured, result) VALUES
  ('C=CCOC(=O)/C=C\C(=O)OCC=C', 'activation', 'inactive'),
  ('CCN1CCCC1CN (stereo not drawn)', 'activation', 'inactive'),
  ('C=CC/C=C/C', 'activation', 'inactive'),
  ('CCC(CC)(CC(=O)Nc1cccc(/C=C/c2nc(C3CCC3)cs2)c1)C(=O)O', 'activation', 'inactive'),
  ('O=C1OC(=O)c2cccc3cccc1c23', 'activation', 'inactive');

Please look at the items below and tell me activation for each one, in order.
1. NS(=O)(=O)c1cc(C(=O)NN2C[C@H]3[C@H]4CCC(C4)[C@H]3C2)ccc1Cl
2. CC(C)OC(=O)c1cc2c(OCC(O)CNC(C)(C)C)cccc2[nH]1 (stereo not drawn)

Result:
["inactive", "inactive"]

Record activation for all entries; do not skip any.
1. CCCCNc1ccc(NCCCC)c2c1C(=O)c1ccccc1C2=O
2. O=C(O)C(=O)Cc1c[nH]c2ccccc12
3. Cc1cccn2c(=O)c(-c3nnn[nH]3)cnc12
4. C=COCCCCO
5. O=[N+]([O-])c1cccc(I)c1
6. CCOc1cc([N+](=O)[O-])c(OCC)cc1N1CCOCC1

Result:
1: -3.45% [at 15.8 µM] (inactive); 2: inactive; 3: 0.024% [at 15.8 µM] (inactive); 4: inactive; 5: inactive; 6: inactive

----------
- run_description: Nuclear factor erythroid 2-related factor 2/antioxidant responsive element (Nrf2/ARE) small molecule agonists: qHTS cell viability counter screen in human keratinocytes (AID 1919968); also: % is scaled to controls: 0 for no effect and ±100 for the full control effect; nearly all actives have a fitted effect of over 55% in size
- measurement_parameters: KeratinoSens HaCaT ARE cells viability, CellTiter-Fluor, 24 h; series mostly up to 92.4 µM
Records with an inconclusive call do not appear. The source made the active and inactive calls. The call rests on the fitted dose curve; in most records, active means well fitted cell-killing curve with a large enough effect in the repeat runs; inconclusive means weak or mixed curves, or effect the other way; inactive means flat fitted curve, though single readings scatter.
// allowed return values: t (active), f (inactive)

Q: What was the test verdict on C/C(=N\O)c1ccc(OCC(=O)N2CCCCC2)cc1 ?
Result: f
